System: MDA-MB-231 breast
Assay: NCI-60 one-dose screen, 48 h (100 = growth as untreated, 0 = no growth, -100 = all killed)
Conditions: 10 µM unless noted
About 83,000 compounds went through this panel and 20% of them were active in at least one assay; those are over-represented in the sample as a whole.
ASSAY METRIC: growth (%)
Express your answer in %, writing the number without its unit.

Recorded growth, per entry:
COMPOUND: Cc1ccc(C2=Nc3c(N)ncnc3NC(c3ccc4c(c3)OCO4)C2)cc1 (configuration not stated)
growth [%]: 61.3
--
COMPOUND: COc1ccc(C(=S)N2CCN(c3ccccc3Cl)CC2)cc1OC
growth [%]: 102
--
COMPOUND: CCOP(=O)(OCC)c1nc(-c2ccccc2)oc1NCc1cccnc1
growth [%]: 108

Which value of growth has been reported for Cc1nc2ncnc(Cl)c2[nH]1 in the records?
103

Another compound: O=C(Cc1ccccc1)Nc1nc(O)c(/C=C2\C(=O)C=Cc3ccccc32)s1
98.1

COc1ccc(/C=N/C2=C(C#N)C(c3cccc(Cl)c3)c3c(ccc4ccccc34)O2)cc1 (configuration not stated) , same question.
38

Same thing, different compound: COc1cccc(/C=C/C(=O)c2cc3c(N)c(C(=O)Nc4ccccc4)sc3nc2C)c1
17.1

Okay, and COc1ccc(/C(C)=C(/c2ccc(OCCCN(C)C)cc2)c2ccc(OC(=O)Cc3ccccc3)cc2)cc1 ?
59.7

And then COC1=CC(c2ccc[nH]2)=N/C1=C\c1[nH]c(C)c(C(=O)OCc2ccccc2)c1C , what is it?
-65.1

Another: Cc1ccc(CNc2ccc(Cl)cc2NCc2ccc(C)c(O)c2)cc1O
-52.2

Moving on to N=C(N)c1ccc(-c2ccc(-c3ccc(F)cc3)o2)o1
8.5

Now this one: CC(C)(C)n1cc(-c2ccnc(NCCCNS(=O)(=O)c3ccc(F)cc3)c2)c(-c2cccc(F)c2)n1
75.6

Next compound up: CC1(C)CC[C@]2(C(=O)O)CC[C@]3(C)C(=CC[C@@H]4[C@@]5(C)C/C(=C/O)C(=O)C(C)(C)[C@@H]5CC[C@]43C)[C@@H]2C1
111

Let us now turn to Cc1cnc(C(=O)NNc2nc3sc4c(c3c(=O)n2C)C(C)CCC4)cn1 (configuration not stated)
-3.01

Queued: CCOC(=O)CSc1ncnc2c1c(-c1ccccc1)c(-c1ccccc1)n2-c1ccc(C)cc1
85.7

And then COc1cc(OC)cc(C2=C3CC[C@@H]4[C@H](CC[C@]5(C)C(=O)CC[C@@H]45)C3=CC3C(O)c4cccnc4N4C(=O)COC234)c1 (some centres not stated) , what is it?
97.8

Now try COC1C[C@H](O[C@@H]2C[C@H](O[C@@H]3C[C@H](O[C@@H]4C(=O)c5c(cc6cc(O[C@H]7C[C@@H](O[C@H]8C[C@@H](O)[C@H](O)C(C)O8)[C@H](O)C(C)O7)c(C)c(O)c6c5O)C[C@H]4C(OC)C(=O)[C@@H](O)[C@@H](C)O)OC(C)[C@H]3O)OC(C)[C@@H]2O)OC(C)[C@@H]1O (some centres not stated) .
-7.44
